MEASURED TARGET: T1, IL13Rα Protein, Human, Recombinant, His Tag (human IL13Rα1) (human, UniProt P78552 22-343)
T1 chain: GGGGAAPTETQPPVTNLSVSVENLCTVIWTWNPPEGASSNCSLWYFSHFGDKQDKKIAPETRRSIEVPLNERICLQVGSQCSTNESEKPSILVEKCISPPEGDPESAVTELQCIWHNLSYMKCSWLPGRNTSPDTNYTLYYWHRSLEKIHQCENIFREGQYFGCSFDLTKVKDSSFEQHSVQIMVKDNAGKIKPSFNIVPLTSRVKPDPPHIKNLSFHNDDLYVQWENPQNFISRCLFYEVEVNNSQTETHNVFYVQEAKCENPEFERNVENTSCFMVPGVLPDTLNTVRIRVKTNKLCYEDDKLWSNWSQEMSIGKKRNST
PROTOCOL NOTES: SPR; equilibrium
pKd: −log10 of the molar value.
PARAMETER: pKd

* D7 (protein) PGPVPPSTAARELIEELFNITQNQKAPLCNGSMVWSINLTAGMYCAALESLINVSGCSAIEKTQRMLSGFCPHKVSAGQFSSLHVKKTRIEVAQFVKDLLIHLRKLFKEGQFN | 5.39
* C2 (protein) PGPVPPSTADIELIEELINITQNQKAPLCNGSMVWSINLTAGMYCAALESLINVSGCSAIEKTQRMLSGFCPHKVSAGQFSSLHVKKTRIEVAQFVKDLLLHLKKLFKEGQFN | 5.40
* C7 (protein) PGPVPPSTALSELMEELVNITQNQKAPLCNGSMVWSINLTAGMYCAALESLINVSGCSAIEKTQRMLSGFCPHKVSAGQFSSLHVRDSKIEVAQFVKDLLNHLKALFKEGQFN | 4.46
* C12 (protein) PGPVPPSTAHRELIEELVNITQNQKAPLCNGSMVWSINLTAGMYCAALESLINVSGCSAIEKTQRMLSGFCPHKVSAGQFSSLHVMDSRIEVAQFVKDLLNHLRALFKEGQFN | 4.82
* C4 (protein) PGPVPPSTAVRELIEELVNITQNQKAPLCNGSMVWSINLTAGMYCAALESLINVSGCSAIEKTQRMLSGFCPHKVSAGQFSSLHVRDTRIEVAQFVKDLLNHLKELFTEGQFN | 4.44
* C9 (protein) PGPVPPSTAHLELIEELINITQNQKAPLCNGSMVWSINLTAGMYCAALESLINVSGCSAIEKTQRMLSGFCPHKVSAGQFSSLHVKETRIEVAQFVKDLLNHLKTLFKEGQFN | 4.51
* C3 (protein) PGPVPPSTAARELIEELVNITQNQKAPLCNGSMVWSINLTAGMYCAALESLINVSGCSAIEKTQRMLSGFCPHKVSAGQFSSLHVTGKRIEVAQFVKDLLNHLRALFKEGQFN | 4.80
* C10 (protein) PGPVPPSTAHLELIEELINITQNQKAPLCNGSMVWSINLTAGMYCAALESLINVSGCSAIEKTQRMLSGFCPHKVSAGQFSSLHVMDTRIEVAQFVKDLLLHLKKLFKEGQFN | 6.58
* C11 (protein) PGPVPPSTAHRELIEELVNITQNQKAPLCNGSMVWSINLTAGMYCAALESLINVSGCSAIEKTQRMLSGFCPHKVSAGQFSSLHVTGRKIEVAQFVKDLLLHLKKLFKEGQFN | 5.44

All values here come from patent US20230365642A1.
